Source: ChEMBL document CHEMBL3588775

# TESTED TARGET: 5-hydroxytryptamine receptor 2C (Homo sapiens) (UniProt P28335)
# Sequence (P28335 whole entry): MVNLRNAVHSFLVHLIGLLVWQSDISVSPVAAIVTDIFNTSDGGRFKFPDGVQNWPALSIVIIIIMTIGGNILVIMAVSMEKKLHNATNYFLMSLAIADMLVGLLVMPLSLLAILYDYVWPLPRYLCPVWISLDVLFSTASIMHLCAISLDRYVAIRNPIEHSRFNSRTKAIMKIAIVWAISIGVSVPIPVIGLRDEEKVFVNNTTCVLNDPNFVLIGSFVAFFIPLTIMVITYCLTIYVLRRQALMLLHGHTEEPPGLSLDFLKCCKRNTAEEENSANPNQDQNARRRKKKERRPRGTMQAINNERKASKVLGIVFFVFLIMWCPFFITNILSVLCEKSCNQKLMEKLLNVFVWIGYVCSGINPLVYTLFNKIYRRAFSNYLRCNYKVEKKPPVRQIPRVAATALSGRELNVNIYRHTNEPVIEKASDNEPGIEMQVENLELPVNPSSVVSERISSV
# ASSAY EXPLANATION: Partial agonist activity at human 5-HT2C receptor expressed in HEK293 cells preincubated for 1 hr at 37 degC followed by incubated for 15 mins at room temperature by IP-One assay relative to 5-HT
# Type: cell-based
Items are presented alongside their recorded Emax.
PARAMETER: Emax (%)

COc1cc(CCNCc2cccc(OC)c2O)c(OC)cc1Br    52
COc1cc(CCNCc2cccc(OC)c2F)c(OC)cc1Br    16
COc1cc(CCNCc2c(OC)cccc2OC)c(OC)cc1Br    33
COc1cc(CCNCc2cccc3c2OCC3)c(OC)cc1Br    52
COc1cc(CC(C)N)c(OC)cc1I (stereo not given)    119
